Target: aldose reductase (Rattus norvegicus, UniProt P07943)
Construct: The crystalline lenses were homogenized in 135 mM sodium-potassium-phosphate buffer (pH 7.0) and centrifuged; from tissue; host or cells: lens of 6 week-old Wistar rats (30,000 rpm supernatant of homogenate)
Test: Determination of Aldose Reductase Activity (In Vitro)
Assay type: biochemical, rat (Wistar)
Settings: Table 3; rat lens aldose reductase, 20 mM glucose, 30 min, 30° C, pH 7.0; read-out: 50% Inhibition Conc. [IC50 (M)]
Known IC50 of a selection of molecules
A number alone suffices; assume M.

The cases that follow already have their IC50 on record.
MOLECULE: COc1cc(OC)c2c(=O)cc(Oc3ccc(O)cc3)oc2c1
READOUT: IC50
UNIT_OF_MEASUREMENT: M
MEASUREMENT: 1e-06
--
MOLECULE: COc1c(OC(C)C)cc2oc(S(=O)(=O)c3ccc(O)cc3)cc(=O)c2c1OC
READOUT: IC50
UNIT_OF_MEASUREMENT: M
MEASUREMENT: 1e-06
--
MOLECULE: COc1c(OC(C)C)cc2oc(Sc3ccc(O)cc3)cc(=O)c2c1OC(C)C
READOUT: IC50
UNIT_OF_MEASUREMENT: M
MEASUREMENT: 1.8e-08
--
MOLECULE: COc1c(OC(C)C)cc2oc([S+]([O-])c3ccc(O)cc3)cc(=O)c2c1OC (stereo not drawn)
READOUT: IC50
UNIT_OF_MEASUREMENT: M
MEASUREMENT: 4.6e-07
--
MOLECULE: COc1c(OCC(C)C)cc2oc(Sc3ccc(O)cc3)cc(=O)c2c1OC(C)C
READOUT: IC50
UNIT_OF_MEASUREMENT: M
MEASUREMENT: 1.3e-07

Let's switch to this molecule now.
Given COc1c(OC(C)C)cc2oc(Sc3ccc(O)c(Cl)c3)cc(=O)c2c1OC(C)C , state its recorded IC50.
4e-06

* * *

Target: aldehyde reductase (Rattus norvegicus)
Construct: The supernatant thus obtained was subjected to 30-60% ammonium sulfate fractionation; from tissue; host or cells: rat kidney (30-60% ammonium sulfate fraction of homogenate supernatant, dialyzed)
Sequence (P51635 whole entry): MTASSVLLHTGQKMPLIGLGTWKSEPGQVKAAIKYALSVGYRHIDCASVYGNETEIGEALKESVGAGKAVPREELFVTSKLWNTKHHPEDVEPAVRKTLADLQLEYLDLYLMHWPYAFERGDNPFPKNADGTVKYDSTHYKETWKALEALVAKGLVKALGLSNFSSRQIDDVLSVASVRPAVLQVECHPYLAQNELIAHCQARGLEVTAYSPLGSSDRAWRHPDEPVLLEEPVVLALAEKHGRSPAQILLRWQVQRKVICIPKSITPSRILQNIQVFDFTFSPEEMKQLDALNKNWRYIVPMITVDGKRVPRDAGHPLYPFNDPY
Test: Ability of Selective Inhibition of Aldose Reductase (aldehyde reductase activity)
Assay type: biochemical
Settings: Table 4; rat kidney aldehyde reductase, 50 mM DL-glyceraldehyde, pH 7.0; read-out: 50% Inhibition conc [IC50 (M)] Aldehyde reductase
Procedure: From rats under ether anesthesia, the kidneys were removed and stored at -20 ° C. The kidneys were homogenized in 0.1M phosphate buffer (pH 7.2) containing 5 mM 2-mercaptoethanol (kidneys: buffer =1:10 (by volume)), followed by centrifugation (14,000 rpm, 20 min., 4° C.), whereby a supernatant was obtained. […] The activity of aldehyde reductase was determined in the same manner as for aldose reductase except for use of 0.1M phosphate buffer (pH 7.0) and as substrate 50 mM DL-glyceraldehyde. […]
READOUT: IC50

# count of solved cases: 6
COMPOUND: COc1c(OC(C)C)cc2oc(Sc3ccc(O)cc3)cc(=O)c2c1OC [Example 22]
IC50: > 0.0001 M
//
COMPOUND: CCOc1c(OC)c(OC(C)C)cc2oc(Sc3ccc(O)cc3)cc(=O)c12 [Example 18]
IC50: > 0.0001 M
//
COMPOUND: CCC(C)Oc1cc2oc(Sc3ccc(O)cc3)cc(=O)c2c(OC)c1OC (centres unmarked) [Example 23]
IC50: > 0.0001 M
//
COMPOUND: CCC(C)Oc1cc2oc(Sc3ccc(O)cc3)cc(=O)c2c(OC(C)C)c1OC (centres unmarked) [Example 16]
IC50: > 0.0001 M
//
COMPOUND: CCC(CC)Oc1cc2oc(Sc3ccc(O)cc3)cc(=O)c2c(OC)c1OC [Example 25]
IC50: > 0.0001 M
//
COMPOUND: CCC(CC)Oc1cc2oc(Sc3ccc(O)cc3)cc(=O)c2c(O)c1OC [Example 33]
IC50: 0.0001 M

Param item = COc1c(O)cc2oc(Sc3ccc(O)cc3)cc(=O)c2c1O [Compound (Formula B), reference compound] ; retrieve measured IC50.
1e-05 M

Query: IC50; subject: COc1cc2oc(Sc3ccc(O)cc3)cc(=O)c2c(OC)c1OC [Example 1]
> 0.0001 M

The reported measurements were obtained from patent US5455267A.
